assay: Highest frequency of moderate liver toxicity observed during clinical trials, expressed as a percentage. [column '% BIOL' in source]; conditions: human
Label satisfied when Hepatotoxicity (moderate) is strictly below 20%; at or above that, label not satisfied.

(Q) Could you please tell me whether Hepatotoxicity (moderate) recorded for Clc1ccc(COC(Cn2ccnc2)c2ccc(Cl)cc2Cl)cc1 (centres undefined) [ECONAZOLE] is less than 20%?
(A) satisfied

(Q) Could you please tell me whether Hepatotoxicity (moderate) recorded for CN(C)CC/C=C1/c2ccccc2Sc2ccc(Cl)cc21 [CHLORPROTHIXENE] is less than 20%?
(A) satisfied

(Q) Could you please tell me whether Hepatotoxicity (moderate) recorded for CC(=O)O[C@H]1CC[C@H]2[C@@H]3CC[C@H]4CC(=O)C=C(C)[C@]4(C)[C@H]3CC[C@]12C [METHENOLONE ACETATE] is less than 20%?
(A) satisfied

(Q) Could you please tell me whether Hepatotoxicity (moderate) recorded for Cc1cn([C@H]2C=C[C@@H](CO)O2)c(=O)[nH]c1=O [STAVUDINE] is less than 20%?
(A) not satisfied

(Q) Could you please tell me whether Hepatotoxicity (moderate) recorded for Nc1ncnc2c1ncn2[C@@H]1O[C@H](CO)[C@@H](O)[C@@H]1O [VIDARABINE] is less than 20%?
(A) satisfied

(Q) Could you please tell me whether Hepatotoxicity (moderate) recorded for FC(F)(F)C(Cl)Br (centres undefined) [HALOTHANE] is less than 20%?
(A) not satisfied

(Q) Could you please tell me whether Hepatotoxicity (moderate) recorded for CC/C(=C(/CC)c1ccc(OP(=O)(O)O)cc1)c1ccc(OP(=O)(O)O)cc1 [DIETHYLSTILBESTROL DIPHOSPHATE] is less than 20%?
(A) satisfied

(Q) Could you please tell me whether Hepatotoxicity (moderate) recorded for CC(C)C(=O)Nc1ccc([N+](=O)[O-])c(C(F)(F)F)c1 [FLUTAMIDE] is less than 20%?
(A) not satisfied

(Q) Could you please tell me whether Hepatotoxicity (moderate) recorded for COc1ccc2[nH]c([S+]([O-])Cc3ncc(C)c(OC)c3C)nc2c1 (centres undefined) [OMEPRAZOLE] is less than 20%?
(A) not satisfied
